Where do the numbers come from? From patent US5789447A.

test system: rat mesenteric venules; experiment: Venular diameter, RBC velocity and wall shear rate after ischemia reperfusion; assay type: in vivo; settings: 30 min after reperfusion; 100 μM in superfusate

- COMPOUND_STRUCTURE: "COC(=O)[C@@H](N)CCCNC(=N)N[N+](=O)[O-]"
  Wall Shear Rate (L/s): 316
- COMPOUND_STRUCTURE: "NCCCNCCCCNCCCN"
  Wall Shear Rate (L/s): 391
- COMPOUND_STRUCTURE: "[NH-]c1c[n+](N2CCOCC2)no1"
  Wall Shear Rate (L/s): 457
